Could you please report measured % Mortality at 48 Hrs. for the items listed next?
Test system: Thrips
Condition Context: thrips on cotton plants, greenhouse; dose 1 ml/gm/lit. spray; 48 hrs after application
Form entry: value (%) — number only.

Task: Tell me % Mortality at 48 Hrs. reported for C=CCc1ccc(OC)cc1 [Methyl chavicol]
Result: 57.50

Task: State its % Mortality at 48 Hrs. for this compound: C/C=C\c1cc(OC)c(OC)cc1OC [β-Asarone]
Result: 65.00

Task: In one line, give reported % Mortality at 48 Hrs. of the entry CCCCC[C@H](O)CC(=O)CCc1ccc(O)c(OC)c1 [Gingerol] .
Result: 30.00

Attribution: patent US20250351832A1
